# targetOrTestSystem: T1, recombinant human IGFBP-1 (human, UniProt P08833 26-259)
# T1 construct: Plate-coated, biotinylated or coupled to a dextran chip, depending on the assay; also called rhIGFBP-1; biotinylated IGFBP-1
# T1 sequence (looked up): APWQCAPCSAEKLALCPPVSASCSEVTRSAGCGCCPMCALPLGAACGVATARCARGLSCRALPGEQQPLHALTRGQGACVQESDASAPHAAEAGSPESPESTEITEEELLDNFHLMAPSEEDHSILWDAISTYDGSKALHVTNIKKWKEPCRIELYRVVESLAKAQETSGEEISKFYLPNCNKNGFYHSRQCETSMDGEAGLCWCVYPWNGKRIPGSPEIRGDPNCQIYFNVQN
# experimentDescription: BIAcore competition assay or ELISA plate assay
Positions of bridges follow the written chain, without caps; N, C: chain ends. No end group written: not given here.
measurementType: binding result

SEMVCRAGPLQWLCEIYF-NH2 (disulfide 5-14 (inferred), Peptide from g3 bp1-01 secondary libraries) [bp1-19] ... binds
CRAGPLQWLCEKYFSTY-NH2 (disulfide 1-10 (inferred), Peptide from g3 bp1-01 secondary libraries) [bp1-21B] ... binds
EARVCRAGPLQWLCEKYF-NH2 (disulfide 5-14 (inferred), Peptide from g3 bp1-01 secondary libraries) [bp1-20] ... binds
SEVGCRAGPLQWLCEKYFSTY-NH2 (disulfide 5-14 (inferred), Peptide from g3 bp1-01 secondary libraries) [bp1-21A] ... binds
